# System: P93_24
# Method Summary: qHTS profiling for inhibitors of Plasmodium falciparum proliferation (AID 504749); also: nearly all actives have a fitted effect of over 60% in size
# Stated Conditions: P. falciparum in erythrocytes, SYBR Green DNA, 72 h; series mostly up to 12.8 µM
Results filed as inconclusive are left out. The source made the active and inactive calls. Calls follow the shape of the dose curve; as a rule, active = well fitted inhibition curve with a large enough effect; inconclusive = small, poorly fitted or top-dose-only effect; inactive = flat fitted curve, though single readings scatter.
A correct response names exactly one class from y = active, n = inactive

Illustrative cases are given below, each with its answer.
{"columns": ["Compound", "Experimental System", "Group"],
 "data": [
  ["C[C@H](N[C@@H](C)COc1ccccc1)[C@H](O)c1ccc(O)cc1", "P93_24", "n"],
  ["CC(C)(C)NC[C@H](O)COc1cccc2c1CCC(=O)N2", "P93_24", "n"],
  ["Cc1onc(-c2ccccc2Cl)c1C(=O)N[C@H]1C(=O)N2[C@H]1SC(C)(C)[C@H]2C(=O)O", "P93_24", "n"],
  ["CCC(C)C(=O)OC1CC(O)C=C2C=CC(C)C(CCC(O)CC(O)CC(=O)O)C21 (stereo not drawn)", "P93_24", "n"]
]}

Request: Please state the recorded outcome for this compound: `Clc1ccc([C@H](Cn2ccnc2)OCc2csc3c(Cl)cccc23)c(Cl)c1`
Result: y

Request: Please state the recorded outcome for this compound: `COCC(=O)Nc1c(I)c(C(=O)NC[C@@H](O)CO)c(I)c(C(=O)N(C)C[C@@H](O)CO)c1I`
Result: n

Request: Please state the recorded outcome for this compound: CC1(C)OC2CC(=O)OC[C@@]23C1CC(=O)[C@]1(C)C3CC[C@@]2(C)C(c3ccoc3)OC(=O)C3O[C@@]321 (stereo partly drawn)
Result: n

Request: Please state the recorded outcome for this compound: `CN(C/C=C\c1ccccc1)Cc1cccc2ccccc12`
Result: n

Request: Please state the recorded outcome for this compound: `Cc1ccsc1/C=C\C1=NCCCN1C`
Result: n

Request: Please state the recorded outcome for this compound: CCC(C)C(=O)OC1CCC=C2C=CC(C)C(CCC3CC(O)CC(=O)O3)[C@@H]21 (stereo partly drawn)
Result: n

Request: Please state the recorded outcome for this compound: CC1CCC(C(C)C)C(=O)C1 (stereo not drawn)
Result: n

Request: Please state the recorded outcome for this compound: `CCCC[C@H](CC)CN1CN(C[C@@H](CC)CCCC)CC(C)(N)C1`
Result: n

Request: Please state the recorded outcome for this compound: `CC(=O)[C@@H]1CC[C@@H]2[C@@H]3C[C@H](C)C4=CC(=O)CC[C@@]4(C)[C@H]3[C@H](O)C[C@]21C`
Result: n

Request: Please state the recorded outcome for this compound: `C=CC1=C(C(=O)O)N2C(=O)[C@@H](NC(=O)/C(=N\OCC(=O)O)c3csc(N)n3)[C@@H]2SC1`
Result: n

----------
# Experimental System: Cytochrome P450 2D6 (Homo sapiens) (UniProt P10635)
# Sequence (P10635 whole entry, looked up): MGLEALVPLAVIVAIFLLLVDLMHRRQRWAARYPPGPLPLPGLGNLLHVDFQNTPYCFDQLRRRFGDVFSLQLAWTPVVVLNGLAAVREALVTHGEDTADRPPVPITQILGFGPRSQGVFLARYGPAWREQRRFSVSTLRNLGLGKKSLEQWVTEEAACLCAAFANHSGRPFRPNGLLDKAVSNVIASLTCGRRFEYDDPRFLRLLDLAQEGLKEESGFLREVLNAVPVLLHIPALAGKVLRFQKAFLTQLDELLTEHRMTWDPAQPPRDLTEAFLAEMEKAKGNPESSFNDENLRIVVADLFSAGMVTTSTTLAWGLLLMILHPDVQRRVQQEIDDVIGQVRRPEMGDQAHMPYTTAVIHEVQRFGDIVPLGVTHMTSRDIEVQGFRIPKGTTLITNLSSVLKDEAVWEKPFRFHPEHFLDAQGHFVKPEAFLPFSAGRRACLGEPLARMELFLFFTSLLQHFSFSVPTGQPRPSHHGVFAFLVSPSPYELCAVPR
# Method Summary: qHTS Assay for Inhibitors and Substrates of Cytochrome P450 2D6 (AID 891); also: nearly all actives have a fitted effect of over 60% in size
# Stated Conditions: recombinant CYP2D6, luciferin-ME EGE luminescence; series mostly up to 57.1 µM
Records with an inconclusive call do not appear. Activity calls are given as the source filed them. The call rests on the fitted dose curve; in most records, active means well fitted inhibition curve with a large enough effect; inconclusive means small, poorly fitted or top-dose-only effect; inactive means no such curve, though single readings can be large or run the other way.
A correct response names exactly one class from active, inactive

Illustrative cases are given below, each with its answer.
{"columns": ["Substance Smiles", "Group"],
 "data": [
  ["C[C@H]1CC[C@@H]2[C@@H](C)[C@H]3[C@H](C[C@H]4[C@@H]5CC=C6C[C@@H](O[C@]7(O[C@H]8O[C@@H](C)[C@@H](O)[C@@H](O)[C@@H]8O)C[C@@H](O[C@@H]8O[C@H](CO)[C@@H](O)[C@H](O)[C@@H]8O)[C@@H](O)[C@H](CO)O7)CC[C@]6(C)[C@H]5CC[C@@]34C)N2C1", "inactive"],
  ["O=c1cc(-c2cccc(O)c2)oc2cc(O)ccc12", "inactive"],
  ["C[N+](C)(CCCOc1ccccc1)c1ccccc1", "active"],
  ["CCCC[C@H](CC)CN1CN(C[C@@H](CC)CCCC)CC(C)(N)C1", "active"],
  ["C/C(=C\\CNc1ncnc2nc[nH]c12)CO", "inactive"]
]}

Request: Please state the recorded outcome for this molecule: `CN1CCC[C@@H](CC2c3ccccc3Sc3ccccc32)C1`
Result: active

Request: Please state the recorded outcome for this molecule: `Clc1ccc([C@H](Cn2ccnc2)OCc2csc3c(Cl)cccc23)c(Cl)c1`
Result: active

Request: Please state the recorded outcome for this molecule: `Cc1cc2ccc(=O)oc2cc1OC[C@@H](O)C(C)(C)O`
Result: inactive

Request: Please state the recorded outcome for this molecule: `COc1cc2ccc(=O)oc2c(O)c1O`
Result: inactive

----------
# Method Summary: Confirmation and Secondary Assay for Modulators of Hemoglobin Beta Chain Splicing at IVS2 705 locus (AID 930);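 also: HeLa cells stably expressing the EGFP-705 splicing reporter; GFP fluorescence per well restored by corrected splicing of the IVS2-705 intron in EGFP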
# Stated Conditions: HeLa EGFP-705 splicing reporter, GFP fluorescence, 48 h; series mostly up to 46.1 µM
# Experimental: NIH Chemical Genomics Center [NCGC] NIH Molecular Libraries Screening Centers Network [MLSCN] […] NCGC Assay Protocol Summary: Confirmatory Screening. […] Plates were read in the Acumen Explorer (TTP Labtech) using 488 nm laser excitation and 500-520 nm emission PMT filter in a 1 x […] capture mode. Fluorescnet objects ranging in size from 5 to 250 uM were measured and the total peak GFP intensity for each well was used for data analysis. […]
The source made the active and inactive calls. The call rests on the fitted dose curve; in most records, active means well fitted activation curve with a large enough effect; inconclusive means small, poorly fitted or top-dose-only effect; inactive means flat fitted curve, though single readings scatter.
Measured Attribute: outcome

{"columns": ["Molecule", "Reported Result"],
 "data": [
  ["COC1(C)CCC2OC2(C)CCC2C1CC2(C)C (centres undefined)", "inactive"],
  ["COc1c(O)cc2c(-c3ccccc3)cc(=O)oc2c1OC", "inactive"],
  ["C/C=C(\\C)C(=O)OC1[C@@H]2C=C3C4CC(=O)OC(c5ccoc5)[C@]4(C)CCC3[C@@](C)(C2=O)C(C(O)C(=O)OC)C1(C)C (some centres undefined)", "inactive"],
  ["C[C@@]12CCC3c4ccc(OS(=O)(=O)O)cc4CCC3C1CCC2O (some centres undefined)", "inactive"],
  ["CS(=O)(=O)Nc1cccc(-c2nc(Nc3ccc(F)cc3)c3ccccc3n2)c1", "inactive"]
]}

Request: Dear colleague, I am looking for the recorded outcome of the following molecule: `CC1=CCc2c(cc3oc(C)cc(=O)c3c2O)OC1`
Result: inactive

Request: Dear colleague, I am looking for the recorded outcome of the following molecule: CC(=O)OCC(=O)[C@@]12OC3(CCCC3)OC1CC1C3CCC4=CC(=O)C=C[C@@]4(C)[C@]3(F)C(O)C[C@]12C (some centres undefined)
Result: inactive

Request: Dear colleague, I am looking for the recorded outcome of the following molecule: `CCOc1ccc(C(=O)c2ccc(OC)c(O)c2O)cc1`
Result: inactive

Request: Dear colleague, I am looking for the recorded outcome of the following molecule: COc1ccc(C2CC(=O)c3ccc(OC)cc3O2)cc1 (centres undefined)
Result: inactive

Request: Dear colleague, I am looking for the recorded outcome of the following molecule: CC(=O)OC1CC2C(C)(C)C(=O)C=C[C@]2(C)C2CC[C@@]3(C)C(c4ccoc4)OC(=O)C4O[C@@]43[C@]12C (some centres undefined)
Result: inactive

Request: Dear colleague, I am looking for the recorded outcome of the following molecule: `NCCC(=O)N[C@H](Cc1cnc[nH]1)C(=O)O`
Result: inactive

----------
# Tested on: TAB113
# Method Summary: qHTS profiling for inhibitors of Plasmodium falciparum proliferation (AID 504749); also: nearly all actives have a fitted effect of over 60% in size
# Stated Conditions: P. falciparum in erythrocytes, SYBR Green DNA, 72 h; series mostly up to 12.8 µM
Results filed as inconclusive are left out. The source made the active and inactive calls. Calls come from the whole dose curve; as a rule, active = well fitted inhibition curve with a large enough effect; inconclusive = small, poorly fitted or top-dose-only effect; inactive = flat fitted curve, though single readings scatter.
A correct response names exactly one class from YES for active, NO for inactive

{"columns": ["Compound", "Group"],
 "data": [
  ["C=CCN1C(=CCO)[C@H]2C[C@H]3[C@@H]1CC[C@@]31c3ccccc3N3C=C4[C@@H]5N(/C=C/2[C@H]31)c1ccccc1[C@]51CC[C@H]2[C@H]1C[C@@H]4/C(=C/CO)N2CC=C", "NO"],
  ["C[C@@]12CCC(=O)C=C1C=CC1C2CC[C@]2(C)C1CC[C@@]21CCC(=O)O1 (some centres not stated)", "NO"],
  ["CCC(C)C(=O)OC1CC(O)C=C2C=CC(C)C(CCC(O)CC(O)CC(=O)O)C21 (configuration not stated)", "NO"],
  ["C[C@]12CCC(=O)C=C1CCC1C2C(=O)C[C@]2(C)C1CC[C@]2(O)C(=O)CO (some centres not stated)", "NO"],
  ["CC(=O)O[C@]1(C(C)=O)CC[C@@H]2[C@@H]3C=C(C)C4=CC(=O)CC[C@@]4(C)[C@H]3CC[C@]21C", "NO"]
]}

Request: Please state the recorded outcome for this compound: CC1(C)OC2CC(=O)OC[C@@]23C1CC(=O)[C@]1(C)C3CC[C@@]2(C)C(c3ccoc3)OC(=O)C3O[C@@]321 (some centres not stated)
Result: NO

Request: Please state the recorded outcome for this compound: `O[C@@](CCN1CCCC1)(c1ccccc1)C1CCCCC1`
Result: NO

Request: Please state the recorded outcome for this compound: `CCCCCCCCCc1ccc(OCCOCCOCCOCCOCCOCCOCCOCCOCCO)cc1`
Result: NO

Request: Please state the recorded outcome for this compound: `CC1(C)[C@@H](OC(=O)CCC(=O)O)CC[C@@]2(C)[C@H]1CC[C@@]1(C)[C@H]2C(=O)C=C2[C@H]3C[C@](C)(C(=O)O)CC[C@]3(C)CC[C@@]21C`
Result: NO

Request: Please state the recorded outcome for this compound: `CCOC(=O)O[C@@H](C)OC(=O)[C@@H]1N2C(=O)[C@@H](NC(=O)[C@@H](N)c3ccccc3)[C@H]2SC1(C)C`
Result: NO

Request: Please state the recorded outcome for this compound: `Cc1ncc([N+](=O)[O-])n1C[C@H](O)CCl`
Result: NO
